- System: MS2 coat protein
- experimental_protocol: apparent KD of MS2 coat protein; designed switch direction (-1 OFF switch, 1 ON switch): -1; higher = weaker reporter binding
- conditions_used: input ligand: none
Below, each entry is listed with its recorded apparent KD of MS2 coat protein.
readout: apparent KD of MS2 coat protein (µM)

{"sequence_input": "GGUAGAGUGGUAGGAUAUCCGUCUGUUUCAGUCGGAGAAGGGCCACAGUCACUGGGUCCUAAUAUCAUGGAGACCUGAUCUACU [pwkr exNG1 F6.13] (Eterna round: R96, puzzle: Exclusion NG 1)", "test_result": 0.385}
{"sequence_input": "AUCCUACAUGAGGAUCACCCAUGUCAGGAUAUCCAAGAAAUCUGGCCGUAUCGGCCAGGGAGAAGGGACAUGGU [jl-ex1-4.63 ViennaUCT mod] (Eterna round: R97, puzzle: Exclusion 1)", "test_result": 0.049}
{"sequence_input": "AGUUCACAUGAGGAUCACCCAUGUGAGGAUAUGGAUUCGCUGGCCGUAGCCAGUGGAUCCAGAAGGCGCAUGAU [JL-ex1-4.14] (Eterna round: R97, puzzle: Exclusion 1)", "test_result": 0.032}
{"sequence_input": "AGUACUCACACGAAAGUGUUAGUACAAUAAGCUUGUGAAACAUGAGGAUCACCCAUGUCCUCAUAAGCUCGUCUUAU [salish99_TOv2_r3_018] (Eterna round: R96, puzzle: Sensor v3, turn-off variant 2)", "test_result": 0.0181}
{"sequence_input": "AAUGAUUGACGAGGAUAUUGUGGUGAAACACGACGAGAAGGCGUAUGUCACAUGAGGAUCACCCAUGUGAGCUUUGUGGAUAUA [Ex NG1 #68] (Eterna round: R96, puzzle: Exclusion NG 1)", "test_result": 0.0341}

From: the supplement of paper PMC9170038
